Values from patent US4971974A

# Test method notes: Acute toxicity studies in mice
# Assay setup: mouse, in vivo, ip, intraperitoneally
Reported metric: LD50

Look at this compound and give its reported LD50. `c1ccc2c3c(sc2c1)CNCC3`
> 100 mg/kg
